Target: Aβ40 (UniProt P05067 672-711)
Sequence (P05067 672-711 limits assumed): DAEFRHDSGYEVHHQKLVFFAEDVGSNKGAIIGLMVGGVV
Experiment: cell-based or functional assay
Square brackets hold non-standard residues; d marks the D form.
measurement_name: Inhibition at 1:1/3 (ThT assay, Aβ:cyclic peptide) (%)
Answers are plain numbers, in %.

| binder | numeric_readout |
| --- | --- |
| cyclo([dL]A[dW]H[dS]K) (SMILES CC(C)C[C@H]1NC(=O)[C@H](CCCCN)NC(=O)[C@@H](CO)NC(=O)[C@H](Cc2c[nH]cn2)NC(=O)[C@@H](Cc2c[nH]c3ccccc23)NC(=O)[C@H](C)NC1=O) [[lAwHsK]: Cyclo-D-leucine-L-alanine-D-tryptophan-L-histidine-D-serine-L-lysine] | 3 |
| cyclo([dL]L[dW]H[dS]K) (SMILES CC(C)C[C@@H]1NC(=O)[C@@H](CC(C)C)NC(=O)[C@H](CCCCN)NC(=O)[C@@H](CO)NC(=O)[C@H](Cc2c[nH]cn2)NC(=O)[C@@H](Cc2c[nH]c3ccccc23)NC1=O) [[lLwHsK]: Cyclo-D-leucine-L-leucine-D-tryptophan-L-histidine-D-serine-L-lysine] | 32 |
| cyclo([dL]L[dW]H[dS]A) (SMILES CC(C)C[C@@H]1NC(=O)[C@@H](CC(C)C)NC(=O)[C@H](C)NC(=O)[C@@H](CO)NC(=O)[C@H](Cc2c[nH]cn2)NC(=O)[C@@H](Cc2c[nH]c3ccccc23)NC1=O) [[lLwHsA]: Cyclo-D-leucine-L-leucine-D-tryptophan-L-histidine-D-serine-L-alanine] | 48 |

Record Inhibition at 1:1/3 (ThT assay, Aβ:cyclic peptide) per entry; entries follow.
1. cyclo([dL]L[dA]H[dS]K) (SMILES CC(C)C[C@@H]1NC(=O)[C@@H](CC(C)C)NC(=O)[C@H](CCCCN)NC(=O)[C@@H](CO)NC(=O)[C@H](Cc2c[nH]cn2)NC(=O)[C@@H](C)NC1=O) [[lLaHsK]: Cyclo-D-leucine-L-leucine-D-alanine-L-histidine-D-serine-L-lysine]
2. cyclo([dL]L[dW]H[dA]K) (SMILES CC(C)C[C@@H]1NC(=O)[C@@H](CC(C)C)NC(=O)[C@H](CCCCN)NC(=O)[C@@H](C)NC(=O)[C@H](Cc2c[nH]cn2)NC(=O)[C@@H](Cc2c[nH]c3ccccc23)NC1=O) [[lLwHaK]: Cyclo-D-leucine-L-leucine-D-tryptophan-L-histidine-D-alanine-L-lysine]

A)
1: 5; 2: 47
